# maps each entry to its pKd
Target: T1, human TREM2 Fc fusion (entire TREM2 ECD; only one Fc arm fused to TREM2) (human, UniProt Q9NZC2 19-174)
T1 construct: also called huTREM2-Fc; recombinant hTREM2
T1 sequence: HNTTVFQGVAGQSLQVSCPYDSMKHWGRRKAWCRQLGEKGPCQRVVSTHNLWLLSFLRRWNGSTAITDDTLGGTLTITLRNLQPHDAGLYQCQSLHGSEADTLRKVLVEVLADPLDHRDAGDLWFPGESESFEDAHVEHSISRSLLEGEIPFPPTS
Assay: BLI, Fab, monovalent
Reminder that pKd means the negative base-10 logarithm of the concentration expressed in mol/L.

[[record]]
binder = "AL2p-h77 (antibody, human IgG1, V domains shown, humanized, human IgG1; Fab and IgG formats under one id; also called A2p-h77) VH: QVQLVQSGAEVKKPGASVKVSCKASGYAFSSSWMNWVRQAPGQRLEWIGRIYPGDGDTNYAQKFQGRVTITADTSASTAYMELSSLRSEDTAVYYCARLLRNQPGESYAMDYWGQGTLVTVSS VL: DVVMTQSPDSLAVSLGERATINCRSSQSLVHSNGYTYLHWYQQKPGQSPKLLIYKVSNRFSGVPDRFSGSGSGTDFTLTISSLQAEDVAVYYCSQSTRVPYTFGGGTKVEIK"
result_number = 7.03

[[record]]
binder = "AL2p-h47 (antibody, human IgG1, V domains shown, humanized, human IgG1; Fab and IgG formats under one id) VH: QVQLVQSGAEVKKPGASVKVSCKASGYAFSSSWMNWVRQAPGQGLEWMGRIYPGDGDTNYNGEFRVRVTMTRDTSTSTVYMELSSLRSEDTAVYYCARLLRNQPGESYAMDYWGQGTLVTVSS VL: DVVMTQTPLSLSVTPGQPASISCRSSQSLVHSNGYTYLHWYLQKPGQSPQLLIYKVSNRFSGVPDRFSGSGSGTDFTLKISRVEAEDVGVYYCSQSTRVPYTFGQGTKLEIK"
result_number = 6.79


Q. Reported pKd for AL2p-h43 (antibody, human IgG1, V domains shown, humanized, human IgG1; Fab and IgG formats under one id) VH: QVQLVQSGAEVKKPGASLKVSCKASGYAFSSSWMNWVRQAPGQRLEWIGRIYPGDGDTNYNGEFRVRATLTADTSASTAYMELSSLRSEDTAVYFCARLLRNQPGESYAMDYWGQGTLVTVSS VL: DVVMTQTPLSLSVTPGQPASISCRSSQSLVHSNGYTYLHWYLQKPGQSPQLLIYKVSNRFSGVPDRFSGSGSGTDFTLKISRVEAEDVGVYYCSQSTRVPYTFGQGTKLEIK : what is it?
A. 6.87
